Reported AUC25 values for the following molecules.
Test system: Mycobacterium tuberculosis Erdman (autoluminescent)
Protocol Summary: AUC25, normalised area under dose response up to IC25 (three-drug combination) (fraction (0-1)); higher = more potent at low dose
Measurement Parameters: in vitro model: cholesterol-high 0.2 mM; time point: terminal (~4-5 doublings, model-specific)
Measurement Kind: AUC25

Molecule	Meas Value
COc1nc2ccc(Br)cc2cc1[C@@H](c1ccccc1)[C@@](O)(CCN(C)C)c1cccc2ccccc12 [bedaquiline] + O=[N+]([O-])c1cn2c(n1)OC[C@@H](OCc1ccc(OC(F)(F)F)cc1)C2 [pretomanid] + CO[C@H]1/C=C/O[C@@]2(C)Oc3c(C)c(O)c4c(O)c(c(/C=N/N5CCN(C)CC5)c(O)c4c3C2=O)NC(=O)/C(C)=C\C=C\[C@H](C)[C@H](O)[C@@H](C)[C@@H](O)[C@@H](C)[C@H](OC(C)=O)[C@@H]1C [rifampicin]	0.0574
CC(C)/N=c1\cc2n(-c3ccc(Cl)cc3)c3ccccc3nc-2cc1Nc1ccc(Cl)cc1 [clofazimine] + CC[C@@H](CO)NCCN[C@@H](CC)CO [ethambutol] + O=[N+]([O-])c1cn2c(n1)OC[C@@H](OCc1ccc(OC(F)(F)F)cc1)C2 [pretomanid]	0.0873
CC(C)/N=c1\cc2n(-c3ccc(Cl)cc3)c3ccccc3nc-2cc1Nc1ccc(Cl)cc1 [clofazimine] + COc1c(N2C[C@@H]3CCCN[C@@H]3C2)c(F)cc2c(=O)c(C(=O)O)cn(C3CC3)c12 [moxifloxacin] + O=[N+]([O-])c1cn2c(n1)OC[C@@H](OCc1ccc(OC(F)(F)F)cc1)C2 [pretomanid]	0.111
COc1nc2ccc(Br)cc2cc1[C@@H](c1ccccc1)[C@@](O)(CCN(C)C)c1cccc2ccccc12 [bedaquiline] + CC[C@@H](CO)NCCN[C@@H](CC)CO [ethambutol] + O=[N+]([O-])c1cn2c(n1)OC[C@@H](OCc1ccc(OC(F)(F)F)cc1)C2 [pretomanid]	0.0509

====

System: Mycobacterium tuberculosis Erdman (autoluminescent)
Protocol Summary: GRinf, maximum normalised growth rate inhibition (three-drug combination) (unitless (-1 to 1)); higher = less effect (negative = killing)
Measurement Parameters: in vitro model: valerate; time point: constant (~7 days, model-specific)
Reported GRinf values for the following molecules.
Measurement Kind: GRinf

Molecule	Meas Value
CC(C)/N=c1\cc2n(-c3ccc(Cl)cc3)c3ccccc3nc-2cc1Nc1ccc(Cl)cc1 [clofazimine] + COc1c(N2C[C@@H]3CCCN[C@@H]3C2)c(F)cc2c(=O)c(C(=O)O)cn(C3CC3)c12 [moxifloxacin] + CO[C@H]1/C=C/O[C@@]2(C)Oc3c(C)c(O)c4c(O)c(c(/C=N/N5CCN(C6CCCC6)CC5)c(O)c4c3C2=O)NC(=O)/C(C)=C\C=C\[C@H](C)[C@H](O)[C@@H](C)[C@@H](O)[C@@H](C)[C@H](OC(C)=O)[C@@H]1C [rifapentine]	-0.0961
COc1nc2ccc(Br)cc2cc1[C@@H](c1ccccc1)[C@@](O)(CCN(C)C)c1cccc2ccccc12 [bedaquiline] + NC(=O)c1cnccn1 [pyrazinamide] + CO[C@H]1/C=C/O[C@@]2(C)Oc3c(C)c(O)c4c(O)c(c(/C=N/N5CCN(C6CCCC6)CC5)c(O)c4c3C2=O)NC(=O)/C(C)=C\C=C\[C@H](C)[C@H](O)[C@@H](C)[C@@H](O)[C@@H](C)[C@H](OC(C)=O)[C@@H]1C [rifapentine]	-0.194

====

Reported AUC25 values for the following molecules.
Tested on: Mycobacterium tuberculosis Erdman (autoluminescent)
Protocol Summary: AUC25, normalised area under dose response up to IC25 (three-drug combination) (fraction (0-1)); higher = more potent at low dose
Measurement Parameters: in vitro model: cholesterol-high 0.2 mM; time point: terminal (~4-5 doublings, model-specific)
Measurement Kind: AUC25

Molecule	Meas Value
NNC(=O)c1ccncc1 [isoniazid] + NC(=O)c1cnccn1 [pyrazinamide] + CO[C@H]1/C=C/O[C@@]2(C)Oc3c(C)c(O)c4c(O)c(c(/C=N/N5CCN(C6CCCC6)CC5)c(O)c4c3C2=O)NC(=O)/C(C)=C\C=C\[C@H](C)[C@H](O)[C@@H](C)[C@@H](O)[C@@H](C)[C@H](OC(C)=O)[C@@H]1C [rifapentine]	0.0802
CC(C)/N=c1\cc2n(-c3ccc(Cl)cc3)c3ccccc3nc-2cc1Nc1ccc(Cl)cc1 [clofazimine] + NNC(=O)c1ccncc1 [isoniazid] + CC(=O)NC[C@H]1CN(c2ccc(N3CCOCC3)c(F)c2)C(=O)O1 [linezolid]	0.109

====

Tested on: Mycobacterium tuberculosis Erdman (autoluminescent)
Protocol Summary: total FIC50 (Loewe) at 50% inhibition, three-drug combination (log2); higher = more antagonistic
Measurement Parameters: in vitro model: cholesterol 0.05 mM; time point: terminal (~4-5 doublings, model-specific)

Compound	Target Or Test System	total FIC50
COc1nc2ccc(Br)cc2cc1[C@@H](c1ccccc1)[C@@](O)(CCN(C)C)c1cccc2ccccc12 [bedaquiline] + O=[N+]([O-])c1cn2c(n1)OC[C@@H](OCc1ccc(OC(F)(F)F)cc1)C2 [pretomanid] + CO[C@H]1/C=C/O[C@@]2(C)Oc3c(C)c(O)c4c(O)c(c(/C=N/N5CCN(C)CC5)c(O)c4c3C2=O)NC(=O)/C(C)=C\C=C\[C@H](C)[C@H](O)[C@@H](C)[C@@H](O)[C@@H](C)[C@H](OC(C)=O)[C@@H]1C [rifampicin]	Mycobacterium tuberculosis Erdman (autoluminescent)	0.812
CC(C)/N=c1\cc2n(-c3ccc(Cl)cc3)c3ccccc3nc-2cc1Nc1ccc(Cl)cc1 [clofazimine] + CC(=O)NC[C@H]1CN(c2ccc(N3CCOCC3)c(F)c2)C(=O)O1 [linezolid] + CO[C@H]1/C=C/O[C@@]2(C)Oc3c(C)c(O)c4c(O)c(c(/C=N/N5CCN(C6CCCC6)CC5)c(O)c4c3C2=O)NC(=O)/C(C)=C\C=C\[C@H](C)[C@H](O)[C@@H](C)[C@@H](O)[C@@H](C)[C@H](OC(C)=O)[C@@H]1C [rifapentine]	Mycobacterium tuberculosis Erdman (autoluminescent)	0.236
CC(C)/N=c1\cc2n(-c3ccc(Cl)cc3)c3ccccc3nc-2cc1Nc1ccc(Cl)cc1 [clofazimine] + CC[C@@H](CO)NCCN[C@@H](CC)CO [ethambutol] + NNC(=O)c1ccncc1 [isoniazid]	Mycobacterium tuberculosis Erdman (autoluminescent)	1.57
COc1c(N2C[C@@H]3CCCN[C@@H]3C2)c(F)cc2c(=O)c(C(=O)O)cn(C3CC3)c12 [moxifloxacin] + NC(=O)c1cnccn1 [pyrazinamide] + CO[C@H]1/C=C/O[C@@]2(C)Oc3c(C)c(O)c4c(O)c(c(/C=N/N5CCN(C)CC5)c(O)c4c3C2=O)NC(=O)/C(C)=C\C=C\[C@H](C)[C@H](O)[C@@H](C)[C@@H](O)[C@@H](C)[C@H](OC(C)=O)[C@@H]1C [rifampicin]	Mycobacterium tuberculosis Erdman (autoluminescent)	1.23

====

System: Mycobacterium tuberculosis Erdman (autoluminescent)
Protocol Summary: total FIC50 (Loewe) at 50% inhibition, three-drug combination (log2); higher = more antagonistic
Measurement Parameters: in vitro model: butyrate; time point: terminal (~4-5 doublings, model-specific)
Measurement Kind: total FIC50

Compound	Measurement Kind	Meas Value
COc1nc2ccc(Br)cc2cc1[C@@H](c1ccccc1)[C@@](O)(CCN(C)C)c1cccc2ccccc12 [bedaquiline] + NC(=O)c1cnccn1 [pyrazinamide] + CO[C@H]1/C=C/O[C@@]2(C)Oc3c(C)c(O)c4c(O)c(c(/C=N/N5CCN(C)CC5)c(O)c4c3C2=O)NC(=O)/C(C)=C\C=C\[C@H](C)[C@H](O)[C@@H](C)[C@@H](O)[C@@H](C)[C@H](OC(C)=O)[C@@H]1C [rifampicin]	total FIC50	0.529
CC(C)/N=c1\cc2n(-c3ccc(Cl)cc3)c3ccccc3nc-2cc1Nc1ccc(Cl)cc1 [clofazimine] + CC[C@@H](CO)NCCN[C@@H](CC)CO [ethambutol] + CC(=O)NC[C@H]1CN(c2ccc(N3CCOCC3)c(F)c2)C(=O)O1 [linezolid]	total FIC50	0.703
NNC(=O)c1ccncc1 [isoniazid] + CC(=O)NC[C@H]1CN(c2ccc(N3CCOCC3)c(F)c2)C(=O)O1 [linezolid] + CO[C@H]1/C=C/O[C@@]2(C)Oc3c(C)c(O)c4c(O)c(c(/C=N/N5CCN(C6CCCC6)CC5)c(O)c4c3C2=O)NC(=O)/C(C)=C\C=C\[C@H](C)[C@H](O)[C@@H](C)[C@@H](O)[C@@H](C)[C@H](OC(C)=O)[C@@H]1C [rifapentine]	total FIC50	0.377

====

Reported total FIC50 values for the following compounds.
Test system: Mycobacterium tuberculosis Erdman (autoluminescent)
Protocol Summary: total FIC50 (Loewe) at 50% inhibition, three-drug combination (log2); higher = more antagonistic
Measurement Parameters: in vitro model: butyrate; time point: constant (~7 days, model-specific)

Compound	total FIC50
CC(C)/N=c1\cc2n(-c3ccc(Cl)cc3)c3ccccc3nc-2cc1Nc1ccc(Cl)cc1 [clofazimine] + CC(=O)NC[C@H]1CN(c2ccc(N3CCOCC3)c(F)c2)C(=O)O1 [linezolid] + NC(=O)c1cnccn1 [pyrazinamide]	-0.132
CC[C@@H](CO)NCCN[C@@H](CC)CO [ethambutol] + NNC(=O)c1ccncc1 [isoniazid] + CO[C@H]1/C=C/O[C@@]2(C)Oc3c(C)c(O)c4c(O)c(c(/C=N/N5CCN(C6CCCC6)CC5)c(O)c4c3C2=O)NC(=O)/C(C)=C\C=C\[C@H](C)[C@H](O)[C@@H](C)[C@@H](O)[C@@H](C)[C@H](OC(C)=O)[C@@H]1C [rifapentine]	0.419
CC(C)/N=c1\cc2n(-c3ccc(Cl)cc3)c3ccccc3nc-2cc1Nc1ccc(Cl)cc1 [clofazimine] + NNC(=O)c1ccncc1 [isoniazid] + CC(=O)NC[C@H]1CN(c2ccc(N3CCOCC3)c(F)c2)C(=O)O1 [linezolid]	0.73
NNC(=O)c1ccncc1 [isoniazid] + COc1c(N2C[C@@H]3CCCN[C@@H]3C2)c(F)cc2c(=O)c(C(=O)O)cn(C3CC3)c12 [moxifloxacin] + O=[N+]([O-])c1cn2c(n1)OC[C@@H](OCc1ccc(OC(F)(F)F)cc1)C2 [pretomanid]	2.83
CC(C)/N=c1\cc2n(-c3ccc(Cl)cc3)c3ccccc3nc-2cc1Nc1ccc(Cl)cc1 [clofazimine] + COc1c(N2C[C@@H]3CCCN[C@@H]3C2)c(F)cc2c(=O)c(C(=O)O)cn(C3CC3)c12 [moxifloxacin] + NC(=O)c1cnccn1 [pyrazinamide]	-0.173
COc1nc2ccc(Br)cc2cc1[C@@H](c1ccccc1)[C@@](O)(CCN(C)C)c1cccc2ccccc12 [bedaquiline] + CC[C@@H](CO)NCCN[C@@H](CC)CO [ethambutol] + NNC(=O)c1ccncc1 [isoniazid]	0.537
COc1nc2ccc(Br)cc2cc1[C@@H](c1ccccc1)[C@@](O)(CCN(C)C)c1cccc2ccccc12 [bedaquiline] + NNC(=O)c1ccncc1 [isoniazid] + COc1c(N2C[C@@H]3CCCN[C@@H]3C2)c(F)cc2c(=O)c(C(=O)O)cn(C3CC3)c12 [moxifloxacin]	0.776
CC(C)/N=c1\cc2n(-c3ccc(Cl)cc3)c3ccccc3nc-2cc1Nc1ccc(Cl)cc1 [clofazimine] + CC[C@@H](CO)NCCN[C@@H](CC)CO [ethambutol] + NC(=O)c1cnccn1 [pyrazinamide]	-0.0529
